The measurements presented in this section are drawn from the Immune Epitope Database (IEDB).

target: HLA-A*11:01; assay: IEDB peptide-MHC binding, purified MHC/direct/fluorescence; filed as Kd, often an IC50 or EC50 that approximates it; bounds were set here for any values at or beyond the usual limits of such assays; details: source organism: Escherichia coli O157:H7
pKd: −log10 of the molar value.
Property name: pKd

INSERT INTO measurements (sequence_data, value_observed) VALUES
  ('RGRGVAIHR', '≤ 4.70'),
  ('RPPRRGDKF', '≤ 4.70'),
  ('ITIPIGLYL', '≤ 4.70');

====

biological target: HLA-A*02:01; test: IEDB peptide-MHC binding, purified MHC/competitive/fluorescence; filed as Kd, often an IC50 or EC50 that approximates it; bounds were set here for any values at or beyond the usual limits of such assays; details: source organism: Escherichia coli F11
Property name: Kd (nM)

INSERT INTO results (sequence_data, value_observed) VALUES
  ('CLMTYSHHA', 0.9);

====

target: HLA-A*01:01; assay: IEDB peptide-MHC binding, purified MHC/direct/fluorescence; filed as Kd, often an IC50 or EC50 that approximates it; bounds were set here for any values at or beyond the usual limits of such assays; conditions: source organism: Rickettsia conorii
Property name: Kd

INSERT INTO measurements (sequence_data, value_observed) VALUES
  ('SSSGMDAYY', '0.0692 µM');

====

target: HLA-A*30:01; test: IEDB peptide-MHC binding, purified MHC/competitive/radioactivity; filed as Kd, often an IC50 or EC50 that approximates it; bounds were set here for any values at or beyond the usual limits of such assays; conditions: source organism: Mammarenavirus brazilense
pKd: −log10 of the molar value.
Property name: pKd

INSERT INTO measurements (sequence_data, value_observed) VALUES
  ('KVNACHHNY', 6.30);

====

target: HLA-A*26:01; experiment: IEDB peptide-MHC binding, purified MHC/competitive/radioactivity; filed as Kd, often an IC50 or EC50 that approximates it; bounds were set here for any values at or beyond the usual limits of such assays; details: source organism: Dengue virus 4 Philippines/H241/1956
Measured Kd by item
Property name: Kd (µM)

INSERT INTO measurements (sequence_data, unit_symbol, readout_qualifier, value_observed) VALUES
  ('EVALLRTYCI', 'µM', '=', 6.17),
  ('HTIENTSANL', 'µM', '≥', 48.9);

====

molecular target: HLA-A*68:02; experiment: IEDB peptide-MHC binding, purified MHC/competitive/radioactivity; filed as Kd, often an IC50 or EC50 that approximates it; bounds were set here for any values at or beyond the usual limits of such assays; conditions: source organism: Homo sapiens
Property name: Kd (µM)

INSERT INTO results (sequence_data, assayed_system, property_name, readout_qualifier, value_observed) VALUES
  ('ELNDRLAVYI', 'HLA-A*68:02', 'Kd', '=', 0.0506),
  ('ELEKSKRAL', 'HLA-A*68:02', 'Kd', '≥', 54.3),
  ('QMKDCMREL', 'HLA-A*68:02', 'Kd', '≥', 60),
  ('QLADETLLKV', 'HLA-A*68:02', 'Kd', '=', 11.9),
  ('QLYKEQLAKL', 'HLA-A*68:02', 'Kd', '=', 7.62);
